Experiment: luciferase reporter signal suppression in cells – H4 neuroglioma cells, luminescence, dose response (AID 1990)
Assay type: functional, cell-based
The source made the active and inactive calls. Cut-off read from the data, not from the text of the source: actives have a measured EC50 and inactives only a lower limit.

# compound, EC50
records = [
    ("C/C(=N\\NC(=O)c1cc(Br)ccc1O)c1ccccn1", "10.2 µM (inconclusive)"),
    ("Cc1cc(C)n(-c2cc(N3CCN(S(=O)(=O)c4ccc5ccccc5c4)CC3)ccc2[N+](=O)[O-])n1", "12 µM (active)"),
    ("Cc1cccc(C)c1NC(=O)COc1ccccc1C(=O)Nc1ccc(Br)cn1", "> 120 µM (not active)"),
    ("Cc1ccc(-n2nc3c(=O)n(CCCC(=O)NCc4ccc(Cl)cc4)nc(C)c3c2C)cc1", "0.94 µM (active)"),
    ("CCOC(=O)/C=c1\\s/c(=C\\c2c(OC)ccc3ccccc23)c(=O)n1CC(=O)NCC1CCCO1 (configuration not stated)", "10.5 µM (active)"),
    ("CCCCC[C@H](O)/C=C/[C@@H]1[C@@H](C/C=C\\CCCC(=O)OC)[C@@H](O)C[C@H]1O", "> 120 µM (not active)"),
    ("CC1CC(C)(C)N=C(S)N1CCC(=O)NCc1ccc(Cl)cc1 (configuration not stated)", "> 120 µM (not active)"),
]

Ref: ChEMBL document CHEMBL1201862
